Test: Pharmacokinetics in Sprague-Dawley rats, 2-in-1 dosing
Type: in vivo
Details: Sprague-Dawley, rat, plasma, iv, 1 mg/kg, intravenous 1 mg/kg, single dose, plasma (Table 3); read-out: t½ (converted)
Description: Sprague-Dawley rats (approximate weight 275-300 g, N=3) were dosed intravenously at 5 mL/kg and orally at 10 mL/kg with the above dosing solutions. Blood samples were collected into tubes containing EDTA as the anticoagulant at 0, 0.25 (intravenous only), 0.5, 1, 2, 4, 8, 10, and 24 h post-dosing, and plasma samples were prepared by centrifugation. […]
ASSAY METRIC: half-life (h)

COMPOUND	ASSAY METRIC	ENDPOINT VALUE
Cc1nc(Nc2ncc(C(=O)Nc3c(C)cccc3Cl)s2)cc(N2CCN(CCO)CC2)n1 [Dasatinib, reference compound]	half-life	1.7
[2H]c1cc(C)c(NC(=O)c2cnc(Nc3cc(N4CCN(CCO)CC4)nc(C)n3)s2)c(Cl)c1	half-life	1.7
Cc1nc(Nc2ncc(C(=O)Nc3c(C)cccc3Cl)s2)cc(N2CC[C@@H](O)C2)n1	half-life	1.6
Cc1nc(Nc2ncc(C(=O)Nc3c(C)cccc3Cl)s2)cc(N2CC[C@H](O)C2)n1	half-life	1.6
